Origin of measurements: PubChem BioAssay (NCI)

Below is a list of entries, each paired with its recorded GI50 value.
tested on: SNB-19 CNS; assay: NCI tumour cell line growth inhibition, 48 h
QUANTITY NAME: GI50

1. CN(C)Cc1ccc(NC(=O)c2cncc(C#Cc3cnc(N)c4ncccc34)c2)cc1C(F)(F)F | 1.89 µM
2. N.N.N.N.N#N.N#N.[Cl-].[Os+6] | > 100 µM
3. Nc1c(C(=O)c2cccc(-c3cccnc3)c2)cnn1-c1ccc(F)cc1 | > 25 µM
4. COc1ccc(-n2cc(-c3cc(OC)c(OC)c(OC)c3)nc2SCc2cccc(C#N)c2)cc1OC | > 100 µM
5. O=C(CSSCC(=O)c1ccc(Cl)cc1)c1ccc(Cl)cc1 | 4.94 µM
6. CN[C@@H](C)C(=O)N[C@H](C(=O)N1CCC[C@H]1c1nc(C(=O)c2ccc(F)cc2)cs1)C1CCCCC1 | 53.9 µM
7. CN(C)CCNC(=O)c1ccc2c(c1)oc1cc3ccccc3c(=O)n12 | 25.9 µM
8. O=[N+]([O-])c1ccccc1/C=N\NC(=S)N/N=C/c1ccccc1[N+](=O)[O-] | 6.71 µM
9. CNC(=O)[C@H](Cc1c[nH]c2ccccc12)NC(=O)[C@@H](CC(=O)NO)CC(C)C | > 25 µM
10. Cc1cccc(CNc2c3ccccc3nc3ccccc23)c1 | 3.07 µM
11. N#CC1=C(N)NC(=O)C(C#N)C12Nc1ccccc1S2 (stereo not given) | 90.5 µM
12. CN1CCN(C2=C(Cl)C(=O)c3ccccc3C2=O)CC1 | 4.08 µM
13. CC(C)(C)OC(=O)NCCCCCCCCCn1c2c(c3ccccc3c1=O)C(=O)c1ccccc1-2 | 28.2 µM
14. O=C(c1ccc(Cl)cc1Cl)N1CCN(C(=O)c2ccc(Cl)cc2Cl)C1=S | 24.9 µM
15. CCCC(=O)Oc1ccc(/C(=C(\C)c2ccc(Cl)cc2)c2ccc(OCCN(CC)CC)cc2)cc1 | 2.81 µM
